Numbers sourced from paper PMC7762340.

test system: HsDHODH (human dihydroorotate dehydrogenase) (Homo sapiens, UniProt Q02127)
Construct: gene DHODH; residues 30-396
Sequence (Q02127 29-395): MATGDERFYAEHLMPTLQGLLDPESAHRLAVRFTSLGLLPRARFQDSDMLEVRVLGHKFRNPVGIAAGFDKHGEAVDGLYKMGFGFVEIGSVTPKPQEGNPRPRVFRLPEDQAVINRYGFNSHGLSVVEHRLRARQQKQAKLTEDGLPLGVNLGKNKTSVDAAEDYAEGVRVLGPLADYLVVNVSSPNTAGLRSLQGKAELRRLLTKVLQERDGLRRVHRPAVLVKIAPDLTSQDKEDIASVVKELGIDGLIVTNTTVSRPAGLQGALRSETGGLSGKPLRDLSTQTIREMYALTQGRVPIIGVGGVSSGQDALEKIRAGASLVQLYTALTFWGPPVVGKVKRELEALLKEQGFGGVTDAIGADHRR
test details: co-crystal structure; DCIP enzyme inhibition assay with purified enzyme
Assay type: biochemical

sample smiles: CC(C)=CCC/C(C)=C/CC/C(C)=C/Cc1c(O)c2ccccc2oc1=O
IC50 / nM: 132

----------
test system: EtDHODH (E. tenella dihydroorotate dehydrogenase) (Eimeria tenella, UniProt U6KL66)
Sequence (U6KL66 1-414): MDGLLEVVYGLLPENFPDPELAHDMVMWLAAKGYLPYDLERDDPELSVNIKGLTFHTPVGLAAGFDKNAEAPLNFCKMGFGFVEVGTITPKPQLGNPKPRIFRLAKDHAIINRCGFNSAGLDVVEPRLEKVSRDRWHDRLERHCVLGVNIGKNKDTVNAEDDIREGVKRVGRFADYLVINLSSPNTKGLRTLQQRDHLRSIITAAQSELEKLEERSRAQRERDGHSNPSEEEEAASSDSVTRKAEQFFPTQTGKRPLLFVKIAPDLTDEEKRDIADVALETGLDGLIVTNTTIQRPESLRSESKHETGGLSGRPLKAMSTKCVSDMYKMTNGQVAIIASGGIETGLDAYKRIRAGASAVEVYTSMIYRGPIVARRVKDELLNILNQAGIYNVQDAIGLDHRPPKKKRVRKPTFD
pIC50: −log10 of the molar value.

molecule: CC(C)=CCC/C(C)=C/CC/C(C)=C/Cc1c(O)c2ccccc2oc1=O [ferulenol]
test system: EtDHODH (E. tenella dihydroorotate dehydrogenase) (Eimeria tenella, UniProt U6KL66)
pIC50: 6.32
